Test system: HCT15 cells
assayOverview: cells
Type: cell-based, human
particulars: HCT15 cells, without Verapamil, maximum % cell killing
Non-standard residues stand in square brackets, D forms with d. Residues, ends and D or L forms follow the SMILES beside them. *: point of attachment. Dolaproine = CO[C@@H]([C@@H]1CCCN1)[C@@H](C)C(=O)O; Dil = CC[C@H](C)[C@H](NC)[C@@H](CC(=O)O)OC; X1 = C[C@@H](N*)[C@@H](O)c1ccccc1; NMeV = CN[C@H](C(=O)O)C(C)C
endpoint: HCT-15 % Kill
State the value with its unit after it.

compound | HCT-15 % Kill
C#CCCCCN(C(=O)[C@@H](NC(=O)[C@H]1CCCCN1C)[C@@H](C)CC)[C@H](C[C@@H](OC(C)=O)c1nc(C(=O)N[C@@H](Cc2ccc(N)cc2)C[C@H](C)C(=O)O)cs1)C(C)C | 97.1%
CC[C@H](C)[C@@H]([C@@H](CC(=O)N1CCC[C@H]1[C@H](OC)[C@@H](C)C(=O)N[C@H](C)[C@@H](O)c1ccccc1)OC)N(C)C(=O)[C@@H](NC(=O)[C@@H](NC)C(C)C)C(C)C [MMAE, Monomethyl auristatin E, reference compound] (H-[NMeV]V[Dil][Dolaproine]-X1) | 97.1 ± 3.7%
CC[C@H](C)[C@H](NC(=O)[C@H]1CCCCN1C)C(=O)N(CCCCc1cn(CCCC(=O)O)nn1)[C@H](C[C@@H](OC(C)=O)c1nc(C(=O)N[C@@H](Cc2ccc(N)cc2)CC(C)(C)C(=O)O)cs1)C(C)C | 30.9%

Read the next record carefully.
Problem: Please report the recorded HCT-15 % Kill for "C#CCCCON(C(=O)[C@@H](NC(=O)[C@H]1CCCCN1C)[C@@H](C)CC)[C@H](C[C@@H](OC(=O)NCC)c1nc(C(=O)N[C@@H](Cc2ccc(N)cc2)CC(C)(C)C(=O)O)cs1)C(C)C" .
Result: 99.1%

---

Test system: H69AR cells
assayOverview: Cytotoxicity in panel of MDR cell lines, H69AR (72 h and 144 h)
Format: cell-based, human
particulars: 144 h incubation
# key: entry, value: H69AR % Kill 144 h
Answer format: numeric, % implied, no suffix.

Examples from the recorded data:
compound | H69AR % Kill 144 h, %
CCCCCCN(C(=O)[C@@H](NC(=O)[C@H]1CCCCN1C)[C@@H](C)CC)[C@H](C[C@@H](OC(C)=O)c1nc(C(=O)NC(Cc2ccc(F)c(N)c2)CC(C)(C)C(=O)O)cs1)C(C)C (some centres unmarked) | 99
C#CCCCON(C(=O)[C@@H](NC(=O)[C@H]1CCCCN1C)[C@@H](C)CC)[C@H](C[C@@H](OC(C)=O)c1nc(C(=O)N[C@@H](Cc2ccccc2)CC(C)(C)C(=O)O)cs1)C(C)C | 99.4

Problem: Recall the recorded H69AR % Kill 144 h for "[2H]c1cc(C[C@@H](CC(C)(C)C(=O)O)NC(=O)c2csc([C@@H](C[C@H](C(C)C)N(CCCCC#C)C(=O)[C@@H](NC(=O)[C@H]3CCCCN3C)[C@@H](C)CC)OC(C)=O)n2)cc([2H])c1N" with H69AR cells and state it.
Result: 99

Problem: For H69AR cells, provide H69AR % Kill 144 h of "CC[C@H](C)[C@H](NC(=O)[C@H]1CCCCN1C)C(=O)N(CCCCc1cn(Cc2ccccc2)nn1)[C@H](C[C@@H](OC(C)=O)c1nc(C(=O)N[C@@H](Cc2ccc(N)cc2)CC(C)(C)C(=O)O)cs1)C(C)C" please.
Result: 99.1

Problem: I'm curious: which H69AR % Kill 144 h was measured for "CCCCCCN(C(=O)[C@@H](NC(=O)[C@H]1CCCCN1C)[C@@H](C)CC)[C@H](C[C@@H](OC(C)=O)c1nc(C(=O)N[C@@H](Cc2ccc(F)cc2)C[C@H](C)C(=O)O)cs1)C(C)C" tested on H69AR cells?
Result: 99.3
